assay.system: Adrenergic receptor alpha-1 (Rattus norvegicus) (UniProt P15823+P23944+P43140)
test: In vitro inhibition of [3H]prazosin binding to rat Alpha-1 adrenergic receptors on cortical membranes at 1 uM.
Format: cell membranes
condition.notes: Membrane
measured.quantity: inhibition (%)
Unit % implied. Number only.

GET /value?item= COc1ccc2c(c1)CCN([C@H]1CC[C@@H](c3c[nH]c4ccc(C#N)cc43)CC1)C2 &field=inhibition returns 11

GET /value?item= N#Cc1ccc2[nH]cc([C@H]3CC[C@H](NCCc4ccccc4)CC3)c2c1 &field=inhibition returns 56

GET /value?item= N#Cc1ccc2[nH]cc([C@H]3CC[C@H](N4CCCCC4)CC3)c2c1 &field=inhibition returns 14

GET /value?item= N#Cc1ccc2[nH]cc(C3=CCC(N4CCCCC4)CC3)c2c1 (stereo not given) &field=inhibition returns 10

GET /value?item= Fc1ccc2[nH]cc([C@H]3CC[C@H](NCc4ccccc4)CC3)c2c1 &field=inhibition returns 8

GET /value?item= N#Cc1ccc2[nH]cc(C3=CCC(NCc4ccccc4)CC3)c2c1 (stereo not given) &field=inhibition returns 27

GET /value?item= N#Cc1ccc2[nH]cc([C@H]3CC[C@H](NCc4ccccc4)CC3)c2c1 &field=inhibition returns 28

GET /value?item= N#Cc1ccc2[nH]cc([C@H]3CC[C@@H](NCc4ccccc4)CC3)c2c1 &field=inhibition returns 17

GET /value?item= N#Cc1ccc2[nH]cc(C3=CCC(NCCc4ccccc4)CC3)c2c1 (stereo not given) &field=inhibition returns 32

GET /value?item= c1ccc(CN[C@H]2CC[C@H](c3c[nH]c4ccccc43)CC2)cc1 &field=inhibition returns 64

Reference for the values: ChEMBL document CHEMBL1134143
